ASSAYED_TARGET: T1, mouse SLC34A2 (mouse, UniProt Q9DBP0 1-697)
T1 construct: whole, on cells
T1 sequence (looked up): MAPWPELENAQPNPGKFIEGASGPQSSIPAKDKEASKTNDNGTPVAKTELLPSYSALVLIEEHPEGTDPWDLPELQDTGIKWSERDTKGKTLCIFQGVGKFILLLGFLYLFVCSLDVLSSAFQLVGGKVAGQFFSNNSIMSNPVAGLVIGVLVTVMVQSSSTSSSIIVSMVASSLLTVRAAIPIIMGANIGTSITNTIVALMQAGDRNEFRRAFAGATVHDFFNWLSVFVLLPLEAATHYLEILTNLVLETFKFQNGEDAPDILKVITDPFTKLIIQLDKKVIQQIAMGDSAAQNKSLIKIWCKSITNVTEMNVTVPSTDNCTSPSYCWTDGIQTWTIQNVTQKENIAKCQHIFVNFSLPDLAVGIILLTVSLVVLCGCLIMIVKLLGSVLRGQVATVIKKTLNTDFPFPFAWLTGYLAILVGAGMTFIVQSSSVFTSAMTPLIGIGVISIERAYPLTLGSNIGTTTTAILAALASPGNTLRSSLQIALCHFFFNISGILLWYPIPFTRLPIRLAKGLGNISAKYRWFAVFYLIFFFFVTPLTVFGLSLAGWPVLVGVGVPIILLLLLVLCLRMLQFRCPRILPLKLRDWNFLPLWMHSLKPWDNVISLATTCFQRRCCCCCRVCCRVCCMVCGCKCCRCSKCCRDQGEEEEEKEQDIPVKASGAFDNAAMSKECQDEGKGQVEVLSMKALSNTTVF
MEASUREMENT_NOTES: FACS, HEK293/Mouse SLC34A2 cells
pEC50: −log10 of the molar value.

| BINDER | pEC50 |
| --- | --- |
| 30H9B8F9.p1.z5 hIgG1 (antibody, V domains shown, humanized hIgG1) VH: QVQLVQSGAEVKKPGASVKVSCKTSGYTFTTNNMHWVRQAPGQGLEWIGAIYPGSGATAYNQKFKGRVTMTADTSTSTVYMELSSLRSEDTAVYYCARGMYGHGAMDYWGQGTLVTVSS VL: DIQLTQSPSFLSASVGDRVTITCKASQDVGTAVAWYQQKPGKAPKLLIYWATTRHSGVPSRFSGSGSGTEFTLTISSLQPEDFATYYCQQYSSNPLTFGQGTKLEIK | 8.69 |
| 91C9F1.p1.z7 hIgG1 (antibody, V domains shown, humanized hIgG1) VH: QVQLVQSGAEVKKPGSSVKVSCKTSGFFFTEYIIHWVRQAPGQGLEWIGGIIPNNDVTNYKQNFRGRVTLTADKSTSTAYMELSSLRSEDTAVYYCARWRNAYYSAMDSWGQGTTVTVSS VL: DIQVTQSPSSLSTSVGDRVTITCTASQDVGTAVAWYQQKPGKSPKLLIYWASTRHTGVPERFTGSGSGTDFTLTISSVQPEDVATYFCQQYRTSPLTFGVGTKVEIK | 8.48 |
| 62G10E4G8.p3.z15 hIgG1 (antibody, V domains shown, humanized hIgG1) VH: QVQLVQSGAEVVKPGASVKMSCKASGYTFPSYITHWVKQAPGQGLEWIGAIYPGNADTSYIQKFKGRATLTADKSTSTAYMELSSLRSEDTAVYYCARGTYGTSAWFTYWGQGTLVTVSS VL: EIVLTQSPATLSVSPGERATLSCRARQNIGNNLYWYQQKPGQSPRLLIKYASQSISGIPSRFSGSGSGTDFTLTISSLQSEDFAVYFCQQSFSWPLTFGQGTKLEIK | 8.24 |
